# System: two-spotted mite (Tetranychus urticae Koch)
# ASSAY SUMMARY: Mite Foliage Spray Test
# Assay type: in vivo
# Design: key: A: excellent control; B: partial control; C: no control
# SETUP CONDITIONS: 500 ppm, six days
# Procedure: Suspensions of the test compounds were prepared by dissolving one gram of compound in 50 milliliters of acetone in which had been dissolved 0.1 gram (10 percent of the weight of compound) of an alkylphenoxy polyethoxyethanol surfactant, as an emulsifying or dispersing agent. The resulting solution was mixed into 150 milliliters of water to give roughly 200 milliliters of a suspension containing the compound in finely divided form. […]

{"MOLECULE": "CC1OCSC1=NOC(=O)N(C)SSN(C)C(=O)ON=C1SCOC1C (stereo not shown)", "2-Spotted Mite control rating": "A"}
{"MOLECULE": "CN(SSN(C)C(=O)ON=CC(C)(C)S(C)(=O)=O)C(=O)ON=CC(C)(C)S(C)(=O)=O", "2-Spotted Mite control rating": "B"}
{"MOLECULE": "CN=C1SC(=NOC(=O)N(C)SSN(C)C(=O)ON=C2SC(=NC)SC2(C)C)C(C)(C)S1", "2-Spotted Mite control rating": "B"}
{"MOLECULE": "CN(SSN(C)C(=O)ON=C1CSCCS1)C(=O)ON=C1CSCCS1", "2-Spotted Mite control rating": "A"}
{"MOLECULE": "CSC(C)(C)C=NOC(=O)N(C)SSN(C)C(=O)ON=CC(C)(C)SC", "2-Spotted Mite control rating": "A"}
{"MOLECULE": "CC(C)N1C(=O)C(C)(C)SC1=NOC(=O)N(C)SSN(C)C(=O)ON=C1SC(C)(C)C(=O)N1C(C)C", "2-Spotted Mite control rating": "C"}
{"MOLECULE": "CC(=NOC(=O)N(C)SSN(C)C(=O)ON=C(C)SCCC#N)SCCC#N", "2-Spotted Mite control rating": "A"}
{"MOLECULE": "CN1CCSC(=NOC(=O)N(C)SSN(C)C(=O)ON=C2SCCN(C)C2=O)C1=O", "2-Spotted Mite control rating": "A"}
{"MOLECULE": "CC(=NOC(=O)N(C)SSN(C)C(=O)ON=C(C)[S+](C)[O-])[S+](C)[O-] (stereo not shown)", "2-Spotted Mite control rating": "C"}
{"MOLECULE": "CC(=NOC(=O)N(C)SSN(C)C(=O)ON=C(C)SC(C)C)SC(C)C", "2-Spotted Mite control rating": "A"}
{"MOLECULE": "CN(SSN(C)C(=O)ON=C1SCCS1)C(=O)ON=C1SCCS1", "2-Spotted Mite control rating": "C"}
{"MOLECULE": "CN(SSN(C)C(=O)ON=CC(C)(C)C#N)C(=O)ON=CC(C)(C)C#N", "2-Spotted Mite control rating": "A"}
{"MOLECULE": "CSC(C)=NOC(=O)N(C)SSN(C)C(=O)ON=C(C)SC", "2-Spotted Mite control rating": "C"}
